tested on: Plasmodium berghei; assay: Screen against P. berghei liver stage (PbLuc), transformed with Luciferase, at 10uM; type: functional, HepG2; details: tested at 10 uM
In all, about 69,000 compounds went through this assay and about 8,600 (12%) showed an effect of 50% or more. The sample as a whole holds a higher share of strong results than the screen did.
Record form. Attribute: INHIBITION. Fill in for each entry.

Request: Bench note: what INHIBITION did `CC(C)Cc1ccc(S(=O)(=O)NCCCN2CCNC(=O)C2)cc1` show?
Result: -20.3%

Request: What value of measured INHIBITION is listed for `O=C(NCc1ccco1)[C@H]1CC[C@@H]2[C@@H](CCN2C2CCC2)O1` ?
Result: 27.6%

Request: Fill blank: measured INHIBITION of the compound COc1ccc(C(=O)N2CCOCC2c2[nH]ncc2C)cc1F (centres undefined) is ____.
Result: 3.75%

Request: Please give the measured INHIBITION for this compound: `O=C(NCc1cncc2c1CCN(C1CCOCC1)C2)c1ccno1`
Result: 34.5%

====

test system: Plasmodium berghei; test: Screen against P. berghei liver stage (PbLuc), transformed with Luciferase, at 10uM; format: functional, HepG2; details: tested at 10 uM
Among all 69,000 compounds or so, about 8,600 (12%) showed an effect of 50% or more. This excerpt belongs to a sample that is enriched for strong results.
Endpoint Label: INHIBITION (%)
Give the quantity in %, number only.

Request: Give its INHIBITION value. Item: `CN([C@@H]1CC[C@@H](N2CCOCC2)[C@@H]1O)S(=O)(=O)c1ccccc1`
Result: 3

Request: What value of INHIBITION has been recorded for this entry: `CC(C)N(C(=O)Cn1c(-c2ccco2)cc2cccnc21)C(C)C`
Result: 39.3

Request: Give the measured INHIBITION of `CCN(CC)C(=O)Cn1c(=O)n(Cc2ccco2)c2ncccc21` .
Result: 51.5

Request: Item under review: Cc1ccc(OCC(C)NS(=O)(=O)N(C)C)cc1 (stereo not drawn) . Reported INHIBITION?
Result: 51.5

Request: # get_value(readout='INHIBITION', item= Cc1ccc(NC(=O)N2CCC3(CCC(C(=O)N(C)C)O3)CC2)cc1 (stereo not drawn) )
Result: 46.6

Request: Reported INHIBITION, molecule `Cc1nn(C(C)(C)C)c(=O)n1CC(=O)NC(C)(C)C` : ____
Result: -53.6

Request: Which INHIBITION value is on record for `Cc1cc(CN2C[C@@H]3CCCO[C@@H]3[C@H](N(C)C(C)C)C2)no1` ?
Result: 71.6

Request: Field request: INHIBITION | item: CN1Cc2ccccc2N(CC(O)C(F)(F)F)CCC1=O (stereo not drawn)
Result: 18.4

Request: Can you share its INHIBITION? I mean this molecule: `O=C(c1cncc(Br)c1)N1CCCc2c(F)cc(F)cc21`
Result: 0.705

Request: Bench note: what INHIBITION did Cc1ccc(CN2Cc3nnn(C)c3C(COCc3ccccc3)C2)s1 (stereo not drawn) show?
Result: 78.7

Request: Record request: INHIBITION value, item `Cc1nsc(N2CCN(C(=O)Nc3ccc4[nH]ccc4c3)CC2)n1`
Result: 25.5

Request: Name the recorded INHIBITION for COc1ccc(-c2nccc(C3CCCN3C)n2)cc1 (stereo not drawn) .
Result: 16.5

Request: Given the entry `CC(=O)NCCNC(=O)NCc1ccc(-n2ccc(C(F)(F)F)n2)cc1` , report its measured INHIBITION.
Result: -12.1

Request: Query: INHIBITION; subject: Cc1ccc(OCC(C)NS(C)(=O)=O)cc1 (stereo not drawn)
Result: -1.7

Request: Quick check: INHIBITION of `CCCN1CCC(NC(=O)Nc2ccc(OC)c(OC)c2)CC1` ?
Result: -4.46

Request: Fill in the blank: the reported INHIBITION of `COc1ccc(-c2nc(CN3CCc4cncnc4C3)no2)cc1` is ____.
Result: 5.72

Request: Field request: INHIBITION | item: `COc1cccc(CN(C)CC2=Nc3ccccc3S(=O)(=O)N2)c1`
Result: 69.7

Request: For the molecule `Cc1nc(CN2C[C@@H]3CCCO[C@@H]3[C@H](NC(=O)CC3CC3)C2)cs1` , what INHIBITION is on record?
Result: 47.9

Request: Need INHIBITION of CC(COc1ccccc1)NS(C)(=O)=O (stereo not drawn) , thanks.
Result: 52.6

Request: If you can, please state the reported INHIBITION value of `Cc1ncsc1CN1C[C@@H]2CCCO[C@@H]2[C@H](N(C)C(C)C)C1` .
Result: 50.7

Request: GET /values?readout=INHIBITION&item= OC(CNCc1ccccc1C(F)(F)F)c1ccccc1 (stereo not drawn)
Result: 1.98

Request: I am curious: what INHIBITION value has been reported for CNC(=O)CN1CCC2(CCCN(CC3CCOC3)C2)CC1 (stereo not drawn) ?
Result: 8.6

Request: What value of measured INHIBITION is listed for COC1CCC[C@@H]2CN(Cc3csc(C)n3)C[C@H]12 (stereo partly drawn) ?
Result: 40.3

Request: Need INHIBITION of `O=C(Cn1c(=O)n(Cc2ccco2)c2ncccc21)Nc1ccccn1` , thanks.
Result: 45.5

Request: Entry under review: `COc1cccc(CSC=C2Nc3ccccc3S(=O)(=O)N2)c1` . Reported INHIBITION?
Result: 27.7

Request: Any idea what INHIBITION was measured for `O=C(c1cncc(Br)c1)N1CCCc2ccc(F)cc21` ?
Result: 67.4

Request: Which value of INHIBITION has been reported for `COCCN1C[C@@H]2CN(Cc3ccc(C)s3)CCC[C@]2(C(=O)O)C1` in the records?
Result: 24.9

Request: Look up INHIBITION for this molecule: COC(=O)CC1CSCCN1C(=O)CCc1c(C)nn(C)c1C (stereo not drawn)
Result: 19.8

Request: Quick one: INHIBITION of `Cc1nsc(N2CCN(C(=O)Nc3cccc(F)c3)CC2)n1` ?
Result: 68.3

Request: Could you share which INHIBITION value was measured for `O=C(c1cc[nH]n1)N1CCC(c2cc(Nc3ccccn3)n[nH]2)CC1` ?
Result: -3.31

Request: Recorded INHIBITION for COc1ccc(OCC(C)NS(C)(=O)=O)cc1 (stereo not drawn) , please?
Result: 0.472

Request: For the molecule shown here, `CNS(=O)(=O)c1ccc(CCC(=O)NCc2cccc(OC)c2)cc1` , give the reported INHIBITION.
Result: -74.6

Request: Which INHIBITION is listed for `O=C(NC1CCC1)c1c2c(N3CCCC3)ncnc2n2ccccc12` ?
Result: 46.2

====

test system: Plasmodium berghei; experiment: Screen against P. berghei liver stage (PbLuc), transformed with Luciferase, at 10uM; type: functional, HepG2; conditions: tested at 10 uM
Out of some 69,000 compounds screened, about 8,600 (12%) showed an effect of 50% or more. For the sample, strong results were picked, then their nearest neighbours and some compounds at random.
Endpoint Label: INHIBITION (%)
Express your answer in %, writing the number without its unit.

Request: # input molecule: `Cc1cc(CN(C)C(=O)NCc2ccco2)no1` ; wanted: its INHIBITION
Result: 14.1

Request: # query: INHIBITION of entry `CCOC(=O)N1[C@@H](c2ccco2)[C@@H](CO)C[C@]12CCCCNC2=O`
Result: 1.04

Request: // INHIBITION lookup, key: `CN(Cc1ccco1)Cc1ccccc1CNC(=O)c1cc[nH]n1`
Result: 30.1

Request: Entry `O=C(NCCCC(=O)N1Cc2ccccc2C1)NCc1ccsc1` has what INHIBITION?
Result: 23.5

Request: Entry `CN(Cc1ccco1)Cc1ccccc1CNC(=O)c1cnccn1` : reported INHIBITION = ?
Result: 63.3

Request: // returns reported INHIBITION for input `Cc1cc(NC(=O)c2ccc(C)c(F)c2)[nH]n1`
Result: -30.8

Request: Entry under review: Cc1ccccc1CC(=O)N(C)CC1(O)CCCN(c2ccccn2)C1 (stereo unspecified) . Reported INHIBITION?
Result: -10.5

Request: INHIBITION for `Cc1oc(C)c(C(=O)NCc2ccccc2CN(C)C)c1C` ?
Result: 25.55

Request: Looking for the measured INHIBITION of Cc1cnc(C)c(N2CCCC(CC3CC3)(C(=O)O)C2)n1 (stereo unspecified) , can you help?
Result: 57.5

Request: So what does the record say about INHIBITION for Cc1nc(-c2ccsc2)ccc1C(=O)NC(C)CN1CCOCC1 (stereo unspecified) ?
Result: -4.43

Request: What measured INHIBITION goes with `Cc1cnc(C)c(N2CCC(Cc3ccccc3Cl)(C(=O)O)CC2)n1` ?
Result: 13.5

Request: State the recorded INHIBITION for this entry: `O=C(NCCCC(=O)N1Cc2ccccc2C1)NCc1cccnc1`
Result: 66.3

Request: Item `Cc1nc(C)c(C(=O)Nc2ccc(-c3nnc(N(C)C)o3)cc2)o1` has what recorded INHIBITION?
Result: 6.02

Request: Which measured INHIBITION value corresponds to `CN(C)c1ncccc1CNC(=O)NCc1ccco1` ?
Result: -36.3

Request: Entry `COCCN1CCO[C@@H]2CN(C(=O)NCc3ccccc3)CC[C@@H]2C1` : reported INHIBITION = ?
Result: 7.24

Request: Form field: reported INHIBITION of `CO[C@H]1CC[C@H]2[C@H]1OCCN2Cc1ccc(F)cc1`
Result: -40.9
